Measured on: human GluN1/GluN2B NMDA receptors (Homo sapiens)
Construct: expressed in transfected cells
Sequence (Q13224 27-1484, other chains not shown): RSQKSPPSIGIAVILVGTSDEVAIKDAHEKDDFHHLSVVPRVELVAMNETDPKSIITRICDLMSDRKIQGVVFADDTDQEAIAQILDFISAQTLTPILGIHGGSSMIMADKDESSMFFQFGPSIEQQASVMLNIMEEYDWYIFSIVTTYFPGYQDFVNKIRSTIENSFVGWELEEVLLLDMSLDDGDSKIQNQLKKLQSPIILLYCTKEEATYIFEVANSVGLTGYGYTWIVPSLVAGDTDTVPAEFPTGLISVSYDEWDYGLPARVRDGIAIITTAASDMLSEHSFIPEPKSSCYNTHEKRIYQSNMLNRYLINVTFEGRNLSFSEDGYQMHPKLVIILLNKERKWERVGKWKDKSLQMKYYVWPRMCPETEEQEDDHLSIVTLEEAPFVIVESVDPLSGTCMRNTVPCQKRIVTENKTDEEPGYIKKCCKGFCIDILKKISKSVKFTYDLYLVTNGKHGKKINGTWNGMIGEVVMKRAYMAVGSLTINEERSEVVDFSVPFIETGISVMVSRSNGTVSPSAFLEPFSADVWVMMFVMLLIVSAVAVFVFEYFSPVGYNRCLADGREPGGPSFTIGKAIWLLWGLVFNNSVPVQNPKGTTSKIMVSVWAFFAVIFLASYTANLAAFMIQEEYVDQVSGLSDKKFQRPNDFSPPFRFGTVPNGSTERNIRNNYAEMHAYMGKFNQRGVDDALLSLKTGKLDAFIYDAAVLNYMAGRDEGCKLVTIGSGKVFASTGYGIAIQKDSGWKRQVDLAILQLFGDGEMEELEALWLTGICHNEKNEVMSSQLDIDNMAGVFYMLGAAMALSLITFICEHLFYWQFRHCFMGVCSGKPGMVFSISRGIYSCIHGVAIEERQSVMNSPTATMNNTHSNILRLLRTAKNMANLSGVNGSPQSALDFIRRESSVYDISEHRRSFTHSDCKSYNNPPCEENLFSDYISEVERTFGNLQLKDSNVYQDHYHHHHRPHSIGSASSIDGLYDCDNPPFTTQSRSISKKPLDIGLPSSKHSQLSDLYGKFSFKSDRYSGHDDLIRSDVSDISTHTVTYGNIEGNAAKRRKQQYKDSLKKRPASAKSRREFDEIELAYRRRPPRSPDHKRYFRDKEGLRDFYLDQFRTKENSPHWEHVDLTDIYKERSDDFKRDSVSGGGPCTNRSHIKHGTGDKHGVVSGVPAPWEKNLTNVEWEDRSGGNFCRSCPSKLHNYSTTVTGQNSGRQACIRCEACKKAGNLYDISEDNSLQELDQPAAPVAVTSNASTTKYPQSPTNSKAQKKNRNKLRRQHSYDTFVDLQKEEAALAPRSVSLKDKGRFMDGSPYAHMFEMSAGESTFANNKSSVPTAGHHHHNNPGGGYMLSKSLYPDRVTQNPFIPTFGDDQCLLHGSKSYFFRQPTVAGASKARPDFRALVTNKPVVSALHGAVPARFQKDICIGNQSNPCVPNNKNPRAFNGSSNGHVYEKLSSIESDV
Method: Cell-based calcium flux (FLIPR) assay on cloned human NR1/NR2B ion channels expressed in mammalian cells (standard and HTS buffer variants)
Particulars: standard assay buffer (0.5 mM MgCl2 in dye loading buffer; 137 mM NaCl, 4 mM KCl in assay buffer), human GluN1/GluN2B, read-out: NR2B IC50 (μM) standard assay
Test readout: IC50 (µM)
Dear colleague, please return just the value in µM, with no unit written.

Example results:
CCC(=O)Cn1c(=O)[nH]c2ncc(-c3cccc(F)n3)cc21 | 0.273
Cc1cccc(-c2cnc3c(c2)n(CC(=O)N(C)C)c(=O)n3C)c1F | 0.041
NC(=O)Cn1c(=O)[nH]c2ncc(-c3ccc(F)c(Cl)c3)cc21 | 0.583
Cn1c(=O)n(Cc2cccnn2)c2cc(-c3cccc(Cl)c3)cnc21 | 0.056
Cn1cc(Cn2c(=O)n(C)c3ncc(-c4ccc(C(F)F)s4)cc32)cn1 | 0.354
Cc1cc(-c2cnc3c(c2)n(Cc2cncc(Cl)c2)c(=O)n3C)ccc1F | 0.117
Cc1cccc(-c2cnc3c(c2)n(Cc2cncc(Cl)c2)c(=O)n3C)c1F | 0.19
Cn1c(=O)n(Cc2cncc(Cl)c2)c2cc(-c3cccc(C(F)(F)F)c3)cnc21 | 0.433
Cn1c(=O)n(Cc2cccnc2)c2cc(-c3cccc(C(F)F)c3)cnc21 | 0.053
Cn1cc(Cn2c(=O)n(C)c3ncc(-c4ccc(F)c(F)c4)cc32)nn1 | 0.467

## Task May I ask what IC50 has been recorded for Cn1c(=O)n(CC(=O)N2CC(F)(F)C2)c2cc(-c3cccc(F)c3)cnc21 ?
## Result 0.031

## Task May I ask what IC50 has been recorded for Cc1noc(Cn2c(=O)n(C)c3ncc(-c4ccc(C)s4)cc32)n1 ?
## Result 0.671

## Task May I ask what IC50 has been recorded for O=C(Cn1c(=O)n(CF)c2ncc(-c3ccc(C(F)(F)F)s3)cc21)N1CC(F)C1 ?
## Result 0.063

## Task May I ask what IC50 has been recorded for Cn1c(=O)n(Cc2cccnn2)c2cc(-c3cccc(C(F)F)c3)cnc21 ?
## Result 0.03

## Task May I ask what IC50 has been recorded for Cn1c(=O)n(CC(=O)N2CCC2)c2cc(-c3ccc(F)c(OC(F)F)c3)cnc21 ?
## Result 0.023

====

Measured on: human GluN1/GluN2B NMDA receptors (Homo sapiens)
Construct: expressed in transfected cells
Method: Cell-based calcium flux (FLIPR) assay on cloned human NR1/NR2B ion channels expressed in mammalian cells (standard and HTS buffer variants);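 note: stable Tet-On inducible cell line, Ca2+ influx triggered by glutamate at about EC40 plus 10 µM glycine, fluorescent dye read-out over 5 min, normalized to control wells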
Particulars: standard assay buffer (0.5 mM MgCl2 dye loading; 137 mM NaCl, 4 mM KCl assay buffer), human GluN1/GluN2B cells, read-out: NR2B IC50 (μM) standard assay
Overview of reported IC50 across a group of compounds:
Dear colleague, please return just the value in µM, with no unit written.

Example results:
Cc1cc(C)cc(-c2cnc3[nH]c(=O)n(CCN4CCC4)c3c2)c1 [Example 170] | 0.581
Cc1cnc(Cn2c(=O)[nH]c3ncc(-c4cccc(C(F)(F)F)c4)cc32)c(F)c1 [Example 234] | 1.98
O=c1[nH]c2ncc(-c3cccc(C(F)(F)F)c3)cc2n1Cc1ccc(C(F)(F)F)nc1 [Example 257] | 1.46
O=c1[nH]c2ncc(-c3cccc(C(F)(F)F)c3)cc2n1Cc1ncccn1 [Example 227] | 0.096

Turning now to a further compound:
## Task May I ask what IC50 has been recorded for Cn1c(=O)n(Cc2ccccn2)c2cc(-c3cccc(F)c3)cnc21 [Example 53] ?
## Result 1.4
